Experiment: yeast display, Sf9 membrane polyspecificity reagent, FACS + sequencing; frameworks hold sequencing errors
assay_endpoint: polyreactivity (PSR sort gate)

Below, each entry is followed by its recorded polyreactivity (PSR sort gate) result.
QVQVVESGGGFVQAGGSLRLSCAASGRTFAVYAMGWYTQAPGKEREFVATISVSDGSTYYADTVKGRFTISRDNAKNTVYLQMNSLKPEDTAVYYCAAQRWTVKYNYWGQGTQVTVSS high polyreactivity
QVQLVESGGGLVQAGGSLRLSSAASGSTFRFNAMGWYRQAPGKERELVATISSGGRTYYADSVKGSFTISRDNAKNTVYLQMNSLKPEDTAVYYCAARTGYFLGRFDYWGQGTQVTVSS high polyreactivity
QVQLVESGGGLVQAGGSLRLICAASGRIYIKNAMGWYRQAPGKERELVAAISSGSSTYYADSVKGRFTISRDNAKNSVYLQMYSLKPEDTAVYYCAAPDYRNGVRYPLDYWGQGTQVTVSS low polyreactivity
QVQLVESGGGLVQAGGSLRLSCAASGFTFRYYAMGWYRQAPGKERELVAAISWSGASTYYADSVKGRFTISRDNAKNTVYLQMNSLKPEDTAVYYCAADIPGTYYYWGQGTQVTVSS high polyreactivity
QVQLVESGGGLVQAGGSLRLSCAASGSIFYVNAMGWYRQAPGKERELVAAISVRGGRTYYADSVKGRFTISRDNAKNTVYLQMNSLKPEDTAVYYCATRISTVGRYDYWGQGTQVTVSS high polyreactivity

In plain terms, `QVQLVESGGGLFQEGGSLRLSCAASGRIFSYYAMGWYRQAPGKERELVAGISSGGRTNYADSVKGRFTISRDNAKNTVYLQMNSLKPEDTAVYYCIARSFSLYWAYNYWGQGTQVTVSL` has a documented polyreactivity (PSR sort gate) of high polyreactivity

Memo: `QVQLVESGGGLVQSGGSLRLSCAASGRIFNIYAMGWYRPAPGKERELVAAISGSGGRTSYADSVKGRFTISRDNAKNTVYLQMNSLKPEDTAVYYCAADYSFYTSFRYDYWGQGTQVTVSS` , reported polyreactivity (PSR sort gate): low polyreactivity

In plain terms, `QVQLVESGGGLVQAGGTLRLNSAASGRNFYDYAMRWYRQAPGKERELVASISGGGSTDYADSVKGRFTISRDNAKNTVDFQMNSLNPEDTAVYYCAAQYYLYRSRFDYWGQGTQVTVSS` has a documented polyreactivity (PSR sort gate) of high polyreactivity

Documented polyreactivity (PSR sort gate) of `QVQLVESGGGLVQAGGSLRLSCAASGFIFSIYAMGWYRQAPGKERELVAAISKSGGRTYYADSVKGRFTISRDNAKNTVYLQMNSLKPEDTAVYYCAVDPYYKYDYWGQGTQVTVSS` : high polyreactivity

The value of polyreactivity (PSR sort gate) measured for the sequence `QVQLVESGGGLVQAGGSLRLSCAASGRIFRPYTMGWYRQAPGKERELVAANSWRGGSTYYADSVKVRFTISLDNAKNTVYLLINSLKPEATAVYYCATYVKVIRTAGTRPKMGYWGQVTQVTVSS` turned out to be high polyreactivity

According to the records, this sequence `QVQLVESGGGLVQAGGSLRLSCAASGRIFTYYGMGWYRQARGKERELVAAISSSGDSTFYADSVKGRFTISRDNGKNTVYLQMNSLKPEDTAVYYCAADYYYVWYDYWGQGTQVTVSS` displays polyreactivity (PSR sort gate) of low polyreactivity
